Target: ΔF508 CFTR (Homo sapiens, UniProt P13569, DEL508-508)
Construct: expressed in transfected cells; host or cells: FRT epithelial cells (Fischer rat thyroid)
Sequence (P13569 with tags, fused parts or gaps DEL508-508): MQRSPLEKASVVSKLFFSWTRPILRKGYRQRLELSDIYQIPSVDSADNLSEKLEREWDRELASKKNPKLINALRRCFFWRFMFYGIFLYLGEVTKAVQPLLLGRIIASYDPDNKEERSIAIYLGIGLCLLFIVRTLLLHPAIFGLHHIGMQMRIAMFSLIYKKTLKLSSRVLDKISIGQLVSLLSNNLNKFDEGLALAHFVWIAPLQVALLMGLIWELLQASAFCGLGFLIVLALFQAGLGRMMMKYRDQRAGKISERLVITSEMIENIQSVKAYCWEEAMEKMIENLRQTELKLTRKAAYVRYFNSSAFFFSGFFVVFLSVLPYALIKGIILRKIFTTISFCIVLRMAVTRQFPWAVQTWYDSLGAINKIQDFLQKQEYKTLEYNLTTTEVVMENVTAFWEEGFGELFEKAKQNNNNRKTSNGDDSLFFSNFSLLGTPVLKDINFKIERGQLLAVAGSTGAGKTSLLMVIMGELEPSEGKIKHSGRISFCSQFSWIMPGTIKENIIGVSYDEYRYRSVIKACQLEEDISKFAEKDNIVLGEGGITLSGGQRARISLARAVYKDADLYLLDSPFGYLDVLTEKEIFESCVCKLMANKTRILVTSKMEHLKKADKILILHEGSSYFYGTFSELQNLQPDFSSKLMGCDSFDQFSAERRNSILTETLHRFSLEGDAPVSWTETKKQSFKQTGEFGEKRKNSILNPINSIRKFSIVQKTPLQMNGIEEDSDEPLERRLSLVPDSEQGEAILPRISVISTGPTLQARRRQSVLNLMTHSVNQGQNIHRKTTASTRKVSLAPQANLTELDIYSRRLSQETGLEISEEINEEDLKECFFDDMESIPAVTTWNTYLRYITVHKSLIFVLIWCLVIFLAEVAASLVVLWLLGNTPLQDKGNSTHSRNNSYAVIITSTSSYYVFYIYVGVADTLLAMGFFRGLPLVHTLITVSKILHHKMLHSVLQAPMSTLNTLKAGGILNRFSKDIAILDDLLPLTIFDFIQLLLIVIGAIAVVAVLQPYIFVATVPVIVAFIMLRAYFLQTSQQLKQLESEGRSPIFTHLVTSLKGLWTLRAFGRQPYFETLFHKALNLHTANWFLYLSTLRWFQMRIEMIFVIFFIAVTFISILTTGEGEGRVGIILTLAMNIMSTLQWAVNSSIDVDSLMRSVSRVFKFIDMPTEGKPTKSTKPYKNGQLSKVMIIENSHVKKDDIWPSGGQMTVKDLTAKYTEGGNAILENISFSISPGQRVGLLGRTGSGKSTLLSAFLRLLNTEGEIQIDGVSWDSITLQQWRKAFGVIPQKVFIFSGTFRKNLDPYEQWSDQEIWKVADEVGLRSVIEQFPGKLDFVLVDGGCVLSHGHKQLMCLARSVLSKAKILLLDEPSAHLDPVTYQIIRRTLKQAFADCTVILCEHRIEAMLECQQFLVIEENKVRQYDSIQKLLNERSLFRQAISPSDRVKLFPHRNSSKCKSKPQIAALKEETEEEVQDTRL
Experiment: Dual corrector potentiator assay, potentiator mode: FRT cell Ussing chamber short circuit current, compound added to mucosal solution
Format: cell-based
Settings: pretreatment of cells not given; ΔI(forskolin+compound)/ΔI(forskolin+IBMX+genistein)

mol_smiles: COc1nc(N[C@H]2CC[C@@H](C)CC2)ncc1-c1ccc(OC(C)C)cc1
subject_of_test: ΔF508 CFTR (Homo sapiens, UniProt P13569, DEL508-508)
Potentiator Efficacy: ++ (++=0.3-0.6)

mol_smiles: COc1nc(N[C@H]2CC[C@@H](C)CC2)ncc1-c1ccc(OC(F)F)cc1
subject_of_test: ΔF508 CFTR (Homo sapiens, UniProt P13569, DEL508-508)
Potentiator Efficacy: ++ (++=0.3-0.6)

mol_smiles: COc1nc(N[C@H]2CC[C@@H](C)CC2)ncc1-c1ccnc(C#N)c1
subject_of_test: ΔF508 CFTR (Homo sapiens, UniProt P13569, DEL508-508)
Potentiator Efficacy: ++ (++=0.3-0.6)

mol_smiles: COc1nc(N[C@H]2CC[C@@H](C)CC2)ncc1-c1ccc(OC(F)(F)F)cc1
subject_of_test: ΔF508 CFTR (Homo sapiens, UniProt P13569, DEL508-508)
Potentiator Efficacy: ++ (++=0.3-0.6)
